Task for the reader: assign each of the following compounds its reported bioavailability.
# test-description: Oral bioavailability in CD1 mouse at 20 mg/kg measured up to 8 hrs post dose by LC/MS-MS analysis
# Format: ADME, organism-based
# setup-conditions: in vivo
# output: bare number, implied unit %

What measured bioavailability goes with "Cc1cnn(CC(=O)[C@H]2CC[C@H]3[C@@H]4CC[C@@H]5C[C@](C)(O)CC[C@@H]5[C@H]4CC[C@]23C)c1" ?
6

Same for "C[C@@]1(O)CC[C@H]2[C@H](CC[C@@H]3[C@@H]2CC[C@]2(C)[C@@H](C(=O)Cn4nccn4)CC[C@@H]32)C1"
17

Same for "Cc1cnn(CC(=O)[C@H]2CC[C@H]3[C@@H]4CC[C@@H]5C[C@](C)(O)CC[C@@H]5[C@H]4CC[C@]23C)n1"
39

Same for "C[C@@]1(O)CC[C@H]2[C@H](CC[C@@H]3[C@@H]2CC[C@]2(C)[C@@H](C(=O)Cn4ccc(C#N)n4)CC[C@@H]32)C1"
26

Same for C[C@@]1(O)CC[C@H]2[C@H](CC[C@@H]3[C@@H]2CC[C@]2(C)[C@@H](C(=O)Cn4cc(C#N)cn4)CC[C@@H]32)C1 [ZURANOLONE]
62

Same for "C[C@@]1(O)CC[C@H]2[C@H](CC[C@@H]3[C@@H]2CC[C@]2(C)[C@@H](C(=O)Cn4cccn4)CC[C@@H]32)C1"
5
